Test system: T. mentagrophytes ATCC 9233 IHEM 10342
Assay: microbe, parasite or virus in culture
Assay type: cell-based
Conditions: Trichophyton mentagrophytes, ATCC9233, negative control = 100, read-out: % of growth at a dose of 25 PPM compared to the negative control, T. mentagrophytes ATCC 9233 IHEM 10342
Readout: activity at 25 ppm (%)
Entry rule: numbers only, all in %.

For orientation, consider the following solved cases.
{"Molecule": "CO[C@@H]1[C@H](O)[C@@H](CO)O[C@H]1c1ccccc1", "activity at 25 ppm, %": 79.7}
{"Molecule": "CC1(C)O[C@H]2O[C@H](COCc3ccccc3)[C@H](OCc3ccccc3)[C@H]2O1", "activity at 25 ppm, %": 92}
{"Molecule": "OC[C@H]1O[C@@H](c2ccccc2)C[C@@H]1O", "activity at 25 ppm, %": 95}
{"Molecule": "OC[C@H]1O[C@@H](c2ccccc2)[C@H](O)[C@@H]1O", "activity at 25 ppm, %": 62.4}

Data request, read-out activity at 25 ppm, for CO[C@@H]1[C@@H]2O[C@H](c3ccccc3)OC[C@H]2O[C@H]1c1ccccc1
66

Now the molecule CC(C)[Si]1(C(C)C)OC[C@H]2OC(c3ccccc3)C[C@@H]2O[Si](C(C)C)(C(C)C)O1 (some centres unmarked)
56

Now the molecule CC(=O)OC[C@H]1O[C@@H](c2ccccc2)C[C@@H]1OC(C)=O
83

Now the molecule CO[C@@H]1[C@@H]2O[Si](C(C)C)(C(C)C)O[Si](C(C)C)(C(C)C)OC[C@H]2O[C@H]1c1ccccc1
64.4

* * *

Test system: E. coli ATCC 25922
Assay: microbe, parasite or virus in culture
Assay type: cell-based
Settings: Escherichia coli, ATCC25922, negative control = 100, read-out: % of growth at 25 PPM compared to negative control, E. coli ATCC 25922
Readout: activity at 25 ppm (%)
Entry rule: numbers only, all in %.

For orientation, consider the following solved cases.
{"Compound": "CO[C@@H]1[C@@H]2O[C@H](c3ccccc3)OC[C@H]2O[C@H]1c1ccccc1", "activity at 25 ppm / %": 124}
{"Compound": "CO[C@@H]1[C@@H]2O[Si](C(C)C)(C(C)C)O[Si](C(C)C)(C(C)C)OC[C@H]2O[C@H]1c1ccccc1", "activity at 25 ppm / %": 91.3}
{"Compound": "CC(=O)OC[C@H]1O[C@@H](c2ccccc2)C[C@@H]1OC(C)=O", "activity at 25 ppm / %": 94.8}
{"Compound": "CO[C@@H]1[C@H](O)[C@@H](CO)O[C@H]1c1ccccc1", "activity at 25 ppm / %": 92.8}
{"Compound": "CC(C)[Si]1(C(C)C)OC[C@H]2OC(c3ccccc3)C[C@@H]2O[Si](C(C)C)(C(C)C)O1 (some centres unmarked)", "activity at 25 ppm / %": 94}
{"Compound": "CC1(C)O[C@H]2O[C@H](COCc3ccccc3)[C@H](OCc3ccccc3)[C@H]2O1", "activity at 25 ppm / %": 95.6}

Data request, read-out activity at 25 ppm, for OC[C@H]1O[C@@H](c2ccccc2)[C@H](O)[C@@H]1O
93.4

Now the compound OC[C@H]1O[C@@H](c2ccccc2)C[C@@H]1O
99.2
